# MEASURED TARGET: α-glucosidase
# RUN DESCRIPTION: α-glucosidase inhibition assay (PNPG method)
# ASSAY CONTEXT: absorbance at 405 nm, 37 °C, n = 3, read-out: α-glucosidase inhibitory activity IC50
Quick rule for you: IC50 under 200 nM gets fulfilled, anything else gets not fulfilled.

Ask | A record lists CC1CCC2(C)CCC3(C)C4CCC5C(C)(C)C(O)CCC5(C)C4(C)CCC3(O)C2C1C (stereo not shown) . Is its IC50 below 200 nM?
Reply | not fulfilled

====

# MEASURED TARGET: α-glucosidase
# RUN DESCRIPTION: α-glucosidase inhibition assay (PNPG method)
# ASSAY CONTEXT: absorbance at 405 nm, 37 °C, n = 3, read-out: α-glucosidase inhibitory activity IC50
OUTCOME MEASURE: IC50 (nM)
Answers are plain numbers, in nM.

Some compounds with recorded IC50:
COMPOUND	MEASURED TARGET	MEASUREMENT UNIT	IC50
CC1=CC[C@]2(C)CC[C@]3(C)C(CCC4[C@@]5(C)CCC(=O)C(C)(C)C5CC[C@]43C)C2[C@H]1C (stereo partly drawn) [Compound 13, ψ-taraxasterone]	α-glucosidase	nM	260
C=C(C)[C@@H]1CC[C@]2(CO)CC[C@]3(C)C(CCC4[C@@]5(C)CC[C@H](O)C(C)(C)C5CC[C@]43C)C12 (stereo partly drawn) [Compound 15, birch ester alcohol]	α-glucosidase	nM	90
CC1(C)CC[C@]2(CO)CC[C@]3(C)C(=CCC4[C@@]5(C)C(=O)C[C@@H](O)C(C)(C)C5CC[C@]43C)C2C1 (stereo partly drawn) [Compound 1, 3α, 28-dihydroxy-12-oleanene-l-one]	α-glucosidase	nM	270

For every item in the list below, what is its measured IC50?
1. CC1=CCC2(C)CCC3(C)C(CCC4C5(C)CCC(O)C(C)(C)C5C(O)CC43C)C2C1C (stereo not drawn) [Compound 8, 6β-pseudotaraxasterol]
2. CC1=CCC2(C)CCC3(C)C(CCC4C5(C)C(O)CC(O)C(C)(C)C5CCC43C)C2C1C (stereo not drawn) [Compound 7, 20-taraxastene-1β, 3β -diol]
3. CC1(C)CC[C@]2(C)CC[C@]3(C)C(=CC=C4[C@]5(C)C(CC[C@]43C)C(C)(C)[C@@H](O)C[C@@H]5O)C2C1 (stereo partly drawn) [Compound 3, juglangenin A]

Reply |
1. 230
2. 560
3. 110

Data origin: paper PMC9000864
